Source of measurements: patent US20210301026A1

Target system: T1, monomeric human CSF1R ectodomain protein (human, UniProt P07333 20-517)
T1 construct: also called biotinylated monomeric human CSF1R
Measurement description: SPR Biacore, IgG captured, monomeric CSF1R analyte
Protocol: Affinity (KD) of purified IgGs was determined via SPR with antigen in-solution on a Biacore 3000 (GE). […] The obtained sensorgrams were analysed using the Biacore 3000 evaluation (BIAevaluation) software. The KD was calculated by simultaneous fitting of the association and dissociation phases to a 1:1 Langmuir binding model.
Value kind: pKd
Answers are plain numbers, as −log10 of the molar value.

humanized anti-CSF1R antibody 0301 (hu0301) (antibody, human IgG4, V domains shown, also called mAb-1) VH: QVQLVQSGAEVKKPGSSVKVSCKASGYTFTDNYMIWVRQAPGQGLEWMGDINPYNGGTTFNQKFKGRVTITADKSTSTAYMELSSLRSEDTAVYYCARESPYFSNLYVMDYWGQGTLVTVSS VL: EIVLTQSPATLSLSPGERATLSCKASQSVDYDGDNYMNWYQQKPGQAPRLLIYAASNLESGIPARFSGSGSGTDFTLTISSLEPEDFAVYYCHLSNEDLSTFGGGTKVEIK | 9.68
MH12 (antibody, human IgG4, V domains shown, Deimmunized MH5 derivative, human IgG4(S228P)/Ckappa IgG; also called mAb-4) VH: QVQLVQSGAEVKKPGSSVKVSCKASGYTFSSNYMIWVRQAPGQGLEWMGDINPYNGGANYAQKFQGRVTITADESTSTAYMELSSLRSEDTAVYYCAREGPYFSNLYVMDYWGQGTLVTVSS VL: EIVLTQSPATLSLSPGERATLSCRASQSVSYEGENYLNWYQQKPGQAPRSLIYAASDRATGIPARFSGSGSGTDFTLTISSPEPEDFAVYYCQLSNEDLLTFGGGTKVEIK | 9.47

In: Quick one: pKd of MH13 (antibody, human IgG4, V domains shown, Deimmunized MH5 derivative, human IgG4(S228P)/Ckappa IgG) VH: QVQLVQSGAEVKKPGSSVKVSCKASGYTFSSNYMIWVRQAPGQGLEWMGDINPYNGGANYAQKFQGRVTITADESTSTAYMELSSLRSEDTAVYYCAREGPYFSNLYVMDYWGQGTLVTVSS VL: EIVLTQSPATLSLSPGERATLSCRASQSVSYEGENYLNWYQQKPGQAPRLLIYAASNRATGIPARFSGSGSGTDFTLTISSPEPEDFAVYYCQLSNEDLLTFGGGTKVEIK ?
Out: 9.40
